Below, each entry is listed with its recorded mortality at 10 µg/cm2.
system: Spodoptera litura; assay: Insecticidal activity against pupal stage of Spodoptera litura in compound-treated castor leaves assessed as pupal mortality at 10 ug/cm2 relative to control; format: functional
readout-name: mortality at 10 µg/cm2 (%)

- CC[C@@](C)(OC(C)=O)C(=O)O[C@H]1[C@H](OC(C)=O)C[C@@H]2[C@@](C)([C@@H]3C[C@H]4C=CO[C@H]4O3)[C@H](C)C[C@H](OC(C)=O)[C@@]2(COC(C)=O)[C@@]12CO2 [CLERODENDRIN B ACETATE]: 27
- CC(=O)OC[C@@]12[C@@H](OC(C)=O)C[C@@H](C)[C@](C)([C@@H]3C[C@H]4C=CO[C@H]4O3)[C@H]1CC[C@H](OC(C)=O)[C@]21CO1 [3-EPICARYOPTIN]: 30
- CC[C@@](C)(OC(C)=O)C(=O)O[C@H]1[C@H](O)C[C@@H]2[C@@](C)([C@@H]3C[C@H]4C=CO[C@H]4O3)[C@H](C)C[C@H](OC(C)=O)[C@@]2(COC(C)=O)[C@@]12CO2: 37

This collection of values is drawn from ChEMBL document CHEMBL3046016.
